- procedure.summary: Intrinsic clearance in human microsomes assessed per mg of protein
- Assay type: ADME, Microsome
measured.parameter: microsomal CLint (µL/min/mg)
Quick note: give the figure in µL/min/mg, leave out the unit.

Could you please provide reported microsomal CLint for "O=C(Nc1ccc(Cl)c(Cl)c1)N1CCN(C[C@@H]2CCCN(C3CC3)C2)CC1" ? Thanks! 5

====

- system.under.test: C-C chemokine receptor type 2 (Homo sapiens, UniProt P41597)
- Sequence (P41597 whole entry): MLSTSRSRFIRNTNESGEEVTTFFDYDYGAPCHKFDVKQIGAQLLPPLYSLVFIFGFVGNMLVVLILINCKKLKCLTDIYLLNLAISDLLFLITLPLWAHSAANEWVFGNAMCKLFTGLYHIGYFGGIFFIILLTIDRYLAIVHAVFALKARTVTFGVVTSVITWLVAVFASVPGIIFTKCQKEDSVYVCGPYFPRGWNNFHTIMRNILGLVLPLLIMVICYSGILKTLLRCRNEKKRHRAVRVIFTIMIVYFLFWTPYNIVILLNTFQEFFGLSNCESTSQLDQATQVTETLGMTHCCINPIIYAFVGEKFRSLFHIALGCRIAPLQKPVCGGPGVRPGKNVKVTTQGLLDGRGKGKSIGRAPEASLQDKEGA
- procedure.summary: Displacement of 125I-MCP1 from human CCR2 receptor expressed in human THP-1 cell membrane by SPA assay
- Format: cell membranes
measured.parameter: IC50 (µM)
Quick note: give the figure in µM, leave out the unit.

Report measured IC50 on C-C chemokine receptor type 2 (Homo sapiens, UniProt P41597); entry: "O=C(Nc1cccc(Cl)c1)N1CCN(C[C@@H]2CCCN(C3CC3)C2)CC1" 0.171

Report measured IC50 on C-C chemokine receptor type 2 (Homo sapiens, UniProt P41597); entry: "CC(C)N1CCO[C@@H](CN2CCN(C(=O)Nc3ccc(Cl)c(Cl)c3)CC2)C1" 0.017

Report measured IC50 on C-C chemokine receptor type 2 (Homo sapiens, UniProt P41597); entry: CCN1CCNC(CN2CCN(C(=O)Nc3ccc(Cl)c(Cl)c3)CC2)C1 (racemic) 0.797

Report measured IC50 on C-C chemokine receptor type 2 (Homo sapiens, UniProt P41597); entry: "O=C(Nc1ccc(Cl)c(Cl)c1)N1CCN(C(=O)[C@H]2CN(C3CC3)CCN2)CC1" 0.032

Report measured IC50 on C-C chemokine receptor type 2 (Homo sapiens, UniProt P41597); entry: "O=C(Nc1ccc(Cl)c(Cl)c1)N1CCN(C[C@@H]2CCCN(C3CC3)C2)CC1" 0.01

Report measured IC50 on C-C chemokine receptor type 2 (Homo sapiens, UniProt P41597); entry: "O=C(Nc1ccc(Cl)c(Cl)c1)N1CCN(C[C@@H]2CCCN(Cc3ccccc3)C2)CC1" 0.099

Report measured IC50 on C-C chemokine receptor type 2 (Homo sapiens, UniProt P41597); entry: "O=C(Nc1ccc(C(F)(F)F)c(Cl)c1)N1CCN(C[C@@H]2CCCN(C3CC3)C2)CC1" 0.017

Report measured IC50 on C-C chemokine receptor type 2 (Homo sapiens, UniProt P41597); entry: "O=C(Nc1ccc(Cl)c(Cl)c1)N1CCN(C[C@@H]2CCCN(CC3CC3)C2)CC1" 0.052

====

- procedure.summary: Oral bioavailability in dog at 4 umol/kg
- Assay type: ADME, organism-based, Canis lupus familiaris
- condition.info: in vivo
measured.parameter: bioavailability
Answer as a quantity: numeral, then unit.

Could you please provide reported bioavailability for "CC(C)N1CCN[C@@H](C(=O)N2CCN(C(=O)Nc3ccc(Cl)c(Cl)c3)CC2)C1" ? Thanks! 83%

====

- procedure.summary: Clearance in dog at 4 umol/kg, iv
- Type: ADME, organism-based, Canis lupus familiaris
- condition.info: in vivo
measured.parameter: clearance (mL/min/kg)
Quick note: give the figure in mL/min/kg, leave out the unit.

Could you please provide reported clearance for "CC(C)N1CCN[C@@H](C(=O)N2CCN(C(=O)Nc3ccc(Cl)c(Cl)c3)CC2)C1" ? Thanks! 17

====

- procedure.summary: Volume of distribution at steady state in dog at 4 umol/kg, iv
- Type: ADME, organism-based, Canis lupus familiaris
- condition.info: in vivo, read-out: Vdss
measured.parameter: Vd (L/kg)
Quick note: give the figure in L/kg, leave out the unit.

Could you please provide reported Vd for "CC(C)N1CCN[C@@H](C(=O)N2CCN(C(=O)Nc3ccc(Cl)c(Cl)c3)CC2)C1" ? Thanks! 8.5
